Data origin, for the record: patent US9321756B2

target: full length recombinant Pim-3 (Homo sapiens (Human)); assay: Pim enzyme assay (HTRF, phosphorylation of biotinylated-BAD (S112) peptide), Pim-3; format: biochemical; conditions: Pim-3 enzyme assay; read-out: Pim3 IC50
As shown below, each of these molecules has a reported IC50 value.
Measurement kind: IC50 (nM)

[[record]]
molecule = "CNc1nnc(-c2ccc3[nH]cc(-c4nccc(N5CCOCC5)n4)c3c2)s1 [Example 134]"
experimental_target = "full length recombinant Pim-3 (Homo sapiens (Human))"
unit_of_measurement = "nM"
numeric_readout = 12.3

[[record]]
molecule = "Nc1nnc(-c2ccc3[nH]cc(-c4cncc(Oc5ccccc5)n4)c3c2)o1 [Example 92]"
experimental_target = "full length recombinant Pim-3 (Homo sapiens (Human))"
unit_of_measurement = "nM"
numeric_readout = 12.3

[[record]]
molecule = "Cc1nc(-c2c[nH]c3ccc(-c4nnc(N)s4)cc23)ccc1F [Example 191]"
experimental_target = "full length recombinant Pim-3 (Homo sapiens (Human))"
unit_of_measurement = "nM"
numeric_readout = 144

[[record]]
molecule = "COc1cncc(-c2c[nH]c3ccc(-c4nnc(N)o4)nc23)c1 [Example 10]"
experimental_target = "full length recombinant Pim-3 (Homo sapiens (Human))"
unit_of_measurement = "nM"
numeric_readout = 642

[[record]]
molecule = "Nc1nnc(-c2ccc3[nH]cc(-c4cccc(N5CCCCC5=O)n4)c3c2)s1 [Example 181]"
experimental_target = "full length recombinant Pim-3 (Homo sapiens (Human))"
unit_of_measurement = "nM"
numeric_readout = 47

